- experiment notes: APR_HepG2_MitoticArrest_72hr: Apredica 72-hour HepG2 Assay for Mitotic Arrest (AID 2282918)
- measurement parameters: high-content imaging, actives raise or lower the signal
The source made the active and inactive calls. The calls were made as follows: active = hit-call score of the fitted dose curve at least 0.9, where 1 is the maximum; inactive = score below 0.9.
Hello, when you answer, please use one of the following outcomes: y for active, n for inactive

Recorded results for 2 compounds are shown here.
>>> print(df.to_string())
                            compound  discrete_label
0                            CC(N)=O               n
1  O=C1NC(=O)C(c2ccccc2)(c2ccccc2)N1               n

[ask] Which outcome was entered for the compound CCCCC(CC)COP(=O)(OCC(CC)CCCC)OCC(CC)CCCC (stereo unspecified) in this test?
[reply] y

[ask] Moving on to CCCCCCC(CCCCCCCCCCC(=O)OCC(COC(C)=O)OC(C)=O)OC(C)=O (stereo unspecified)
[reply] y

[ask] Then this compound: NC=O
[reply] n

[ask] Next compound: CC(=O)CC(c1ccccc1)c1c(O)c2ccccc2oc1=O (stereo unspecified)
[reply] n

[ask] Repeat with CC(=O)O[C@]1(C(C)=O)CC[C@H]2[C@@H]3C=C(Cl)C4=CC(=O)[C@@H]5C[C@@H]5[C@]4(C)[C@H]3CC[C@@]21C
[reply] n

Data credit: PubChem BioAssay (EPA / NIEHS)
